IC50 values by entry
# target_or_test_system: EZH2/PRC2 complex (Homo sapiens, UniProt O75530)
# Sequence (O75530 whole entry): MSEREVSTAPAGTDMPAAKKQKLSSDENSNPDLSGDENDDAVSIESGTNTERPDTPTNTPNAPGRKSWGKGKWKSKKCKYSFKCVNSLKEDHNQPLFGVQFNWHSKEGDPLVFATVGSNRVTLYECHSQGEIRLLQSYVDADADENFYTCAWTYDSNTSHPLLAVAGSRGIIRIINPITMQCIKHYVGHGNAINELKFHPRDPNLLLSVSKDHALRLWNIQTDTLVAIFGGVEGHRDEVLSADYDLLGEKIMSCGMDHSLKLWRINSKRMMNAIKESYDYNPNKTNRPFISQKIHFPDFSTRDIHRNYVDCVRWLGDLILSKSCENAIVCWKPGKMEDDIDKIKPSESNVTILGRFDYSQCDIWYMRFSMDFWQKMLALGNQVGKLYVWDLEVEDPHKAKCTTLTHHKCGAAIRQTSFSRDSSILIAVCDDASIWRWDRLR
# Sequence (Q15910 whole entry partner): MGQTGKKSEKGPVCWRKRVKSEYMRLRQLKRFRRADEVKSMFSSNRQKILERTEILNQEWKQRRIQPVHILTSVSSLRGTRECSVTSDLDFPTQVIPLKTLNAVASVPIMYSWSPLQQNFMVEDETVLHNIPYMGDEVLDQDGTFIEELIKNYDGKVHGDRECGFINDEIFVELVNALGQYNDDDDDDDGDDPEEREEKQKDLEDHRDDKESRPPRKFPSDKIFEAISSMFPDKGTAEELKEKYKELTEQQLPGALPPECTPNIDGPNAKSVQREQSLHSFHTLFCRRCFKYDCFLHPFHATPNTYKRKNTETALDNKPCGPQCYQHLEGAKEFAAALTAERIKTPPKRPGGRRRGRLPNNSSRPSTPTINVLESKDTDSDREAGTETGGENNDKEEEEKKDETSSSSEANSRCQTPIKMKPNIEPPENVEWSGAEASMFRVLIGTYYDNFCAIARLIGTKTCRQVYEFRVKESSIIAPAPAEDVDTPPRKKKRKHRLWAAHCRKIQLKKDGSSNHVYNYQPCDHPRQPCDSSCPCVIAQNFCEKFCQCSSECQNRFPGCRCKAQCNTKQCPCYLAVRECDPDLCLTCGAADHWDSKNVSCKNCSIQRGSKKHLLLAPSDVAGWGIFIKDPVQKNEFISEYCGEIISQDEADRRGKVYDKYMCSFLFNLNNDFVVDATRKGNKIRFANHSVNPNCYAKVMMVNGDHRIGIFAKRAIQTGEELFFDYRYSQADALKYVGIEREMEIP
# Sequence (Q15022 whole entry partner): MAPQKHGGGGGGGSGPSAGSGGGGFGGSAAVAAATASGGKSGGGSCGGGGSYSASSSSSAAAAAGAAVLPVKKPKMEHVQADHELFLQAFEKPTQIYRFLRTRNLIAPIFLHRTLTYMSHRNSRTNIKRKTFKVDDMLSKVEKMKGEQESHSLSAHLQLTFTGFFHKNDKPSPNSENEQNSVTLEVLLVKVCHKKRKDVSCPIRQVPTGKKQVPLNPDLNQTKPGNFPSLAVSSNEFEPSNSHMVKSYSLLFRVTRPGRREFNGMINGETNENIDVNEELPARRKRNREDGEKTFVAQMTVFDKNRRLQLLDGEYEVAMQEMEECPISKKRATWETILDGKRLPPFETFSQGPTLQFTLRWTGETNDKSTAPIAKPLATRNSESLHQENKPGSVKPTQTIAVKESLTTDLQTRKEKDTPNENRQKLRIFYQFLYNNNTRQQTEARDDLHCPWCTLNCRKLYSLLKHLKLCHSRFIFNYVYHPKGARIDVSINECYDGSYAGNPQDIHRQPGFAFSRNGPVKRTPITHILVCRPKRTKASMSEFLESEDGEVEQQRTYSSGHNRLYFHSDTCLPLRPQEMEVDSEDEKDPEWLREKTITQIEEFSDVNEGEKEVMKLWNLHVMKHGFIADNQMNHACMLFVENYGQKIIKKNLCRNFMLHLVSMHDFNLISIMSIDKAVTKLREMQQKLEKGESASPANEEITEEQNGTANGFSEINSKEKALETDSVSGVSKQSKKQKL
# assay_text: Histone methyltransferase assay (radioisotope-based HotSpot)
# experimental_parameters: EZH2/PRC2 complex 10 nM, core histone substrate 0.05 mg/ml, 3H-SAM 1 μM; read-out: IC50, inhibitory effects on the HMT enzyme

Illustrative cases are given below, each with its answer.
Cn1nccc1-c1cc2c(n3cnnc13)NCc1c(F)ccc3c1C(CO3)CO2 (centres unmarked) ... < 25 nM
Cc1ncc(-c2cc3c(n4cnnc24)NCc2c(F)cccc2CCO3)c(C)n1 ... 50 to 100 nM
Cc1ncccc1-c1cc2c(n3cnnc13)NCc1c(F)ccc3c1[C@H](CO3)CO2 ... > 500 nM
Cc1ncccc1-c1cc2c(n3cc(C(N)=O)nc13)NCc1c(F)ccc3c1[C@@H](CO3)CO2 ... 25 to 50 nM
Cn1nc(C(C)(C)C#N)cc1-c1cc2c(n3cnnc13)NCc1c(F)ccc3c1[C@@H](CO3)CO2 ... < 25 nM

Req: Give its IC50 value. Item: Cn1nc(OC(F)F)cc1-c1cc2c(n3cnnc13)NCc1c(F)ccc3c1[C@@H](CO3)CO2
Resp: < 25 nM

Req: Give its IC50 value. Item: Cc1ncccc1-c1cc2c(n3cnnc13)NCc1cccc3c1[C@H](CO3)CO2
Resp: < 25 nM

Req: Give its IC50 value. Item: CN(CC(F)(F)F)C(=O)c1cc2c(n3cnnc13)NCc1c(F)ccc3c1C(CO3)CO2 (centres unmarked)
Resp: < 25 nM

----------
# Test system: human P-glycoprotein HEK cells (HEK-P-gp)
# assay_text: H3K27me3 immunocytochemistry assay in P-gp expressing HEK293T cells, with or without elacridar
# Format: cell-based
# experimental_parameters: Homo sapiens, HEK293, with 250 nM elacridar; 4 days compound treatment; read-out: IC50, inhibitory activity on human P-glycoprotein HEK cells (HEK-P-gp) pretreated with elacridar
pIC50: −log10 of the molar value.
pIC50 values by entry

Cc1ncccc1-c1cc2c(n3cnnc13)NCc1c(F)cccc1CCO2 ... < 6.30
Fc1ccc2c3c1CNc1c(cc(C4COC4)c4nncn14)OC[C@@H]3CO2 ... 7.30 to 7.60
Cc1ncc(-c2cc3c(n4cnnc24)NCc2c(F)cccc2COC3)c(C)n1 ... < 6.30

Then there is this molecule:
Req: Notebook entry, human P-glycoprotein HEK cells (HEK-P-gp) assay: pIC50 of CC(=O)N1CC=C(c2cc3c(n4cnnc24)NCc2c(F)ccc4c2[C@@H](CO4)CO3)CC1 = ?
Resp: 7.00 to 7.30

----------
pIC50 values by entry
# Tested on: human P-glycoprotein HEK cells (HEK-P-gp)
# assay_text: H3K27me3 immunocytochemistry assay in P-gp expressing HEK293T cells, with or without elacridar
# Type: cell-based
# experimental_parameters: Homo sapiens, HEK293, 96 h, without elacridar; 4 days compound treatment; read-out: IC50, inhibitory activity on human P-glycoprotein HEK cells (HEK-P-gp)
# Method: A plasmid encoding the human ABCB1 gene under the control of a CMV promoter was purchased from Origene (Cat #RC216080). The HEK293T cells were purchased from ATCC (Cat #CRL-3216) and were cultured for expansion in the recommended conditions. The HEK293T cells were transfected with 2 ug of the pCMV-ABCB1 plasmid using Lipofectamine 3000 following recommendations from the manufacturer (ThermoFisher Scientific, Cat #L3000008). […]
pIC50: −log10 of the molar value.

Illustrative cases are given below, each with its answer.
Fc1ccc2c3c1CNc1c(cc(-c4cnn5c4CCC5)c4nncn14)OC[C@@H]3CO2 [Compound 171] ... < 6.30
COc1ccc(-c2cc3c(n4cnnc24)NCc2c(F)ccc4c2[C@H](CO4)CO3)c(C)n1 [Example 106] ... 7.00 to 7.30

Req: Give its pIC50 value. Item: Cc1ncccc1-c1cc2c(n3cc(C(=O)O)nc13)NCc1c(F)ccc3c1[C@@H](CO3)CO2 [Compound 177]
Resp: < 6.30

# credit: patent US20220160686A1
